assay: COS7 lysate on small-molecule microarray, probe aHis, 635 nm (AID 1123); details: COS7 cell lysate, fluorescence, higher = more signal;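 note: z-score combines 667nm fluorescence intensity with signal-to-noise per printed compound spot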
property-measured: composite z-score

INSERT INTO assay_data (molecule, assay_result) VALUES
  ('N#Cc1ccc(NN2C(C(O)C3CCCCC3)C=CC3C(=O)N(c4ccccc4)C(=O)C32)cc1 (stereo not drawn)', 2.62),
  ('COc1ccc([Si](C)(C)[C@H]2[C@H](CCn3cc(CCO)nn3)O[C@@]3(C(=O)N(Cc4ccc(N5CCOC5=O)cc4)c4ccccc43)[C@@H]2C)cc1', 1.94),
  ('CC(C)C(=C=CC[C@H](O)c1cccc(OCCO)c1)C[C@H](O)COCc1ccccc1', 1.22),
  ('COc1ccc(C#Cc2ccc3c(c2)[C@]2(C(=O)N3)[C@H](C(=O)NC[C@H](O)c3ccccc3)[C@H]3C(=O)O[C@H](c4ccccc4)[C@H](c4ccccc4)N3[C@@H]2c2ccc(OCCO)cc2)cc1', 1.97),
  ('COCCOC(=O)N1C(=O)[C@@]2(c3cc(C#CC4=CCCCC4)ccc31)[C@H](C(=O)NC[C@H](O)c1ccccc1)[C@H]1C(=O)O[C@H](c3ccccc3)[C@H](c3ccccc3)N1[C@@H]2c1ccc(O)cc1', 0.824),
  ('COCCOC(=O)N1C(=O)[C@@]2(c3cc(C#CCNC(N)=O)ccc31)[C@H](C(=O)N1CCc3cc(OC)c(OC)cc3C1)[C@H]1C(=O)O[C@H](c3ccccc3)[C@H](c3ccccc3)N1[C@@H]2c1ccc(OCCO)cc1', 0.423),
  ('COc1ccc(CCNC(=O)[C@@]2(Sc3ccc(C)cc3)CC(=O)N(Cc3ccccc3Cl)[C@@H]2c2ccc(CO)cc2I)cc1', 1.71),
  ('CCOC(=O)C[C@H]1[C@H](OC(=O)c2ccc(-c3ccccc3)cc2)[C@@H](NC(=O)c2ccc(-c3ccccc3)cc2)c2cc(OCCCO)ccc2N1C(=O)Cc1ccc(OC)cc1', 0.589);

---

experiment: osmotic lysis modulators in infected erythrocytes, primary screen, PSAC antagonist project, cell-based, P. falciparum Indochina, OD700, 3 h (AID 1156); conditions: higher = more signal, called active from +8 up or from −8 down
property-measured: z-score

INSERT INTO results (substance_smiles, property_measured, assay_result) VALUES
  ('COCCOC(=O)N1C(=O)[C@@]2(c3cc(C#CCCO)ccc31)[C@H](C(=O)NC[C@H](O)c1ccccc1)[C@H]1C(=O)O[C@H](c3ccccc3)[C@H](c3ccccc3)N1[C@@H]2c1ccc(O)cc1', 'z-score', -0.365),
  ('O=C(O)[C@@]1(Cc2ccccc2)N=C(c2ccc(OCCCO)cc2)O[C@H]1c1ccccc1', 'z-score', -0.466),
  ('COCCCNC(=O)[C@@]1(C)c2ccccc2C(=O)N(Cc2cc(C(F)(F)F)cc(C(F)(F)F)c2)[C@H]1c1ccc(CO)cc1', 'z-score', -0.583),
  ('COC(=O)C[C@H]1O[C@]2(C(=O)N(Cc3ccccc3)c3ccc(NC(C)=O)cc32)[C@@H](C)[C@@H]1[Si](C)(C)c1ccc(OC)cc1', 'z-score', 0.659),
  ('O=C1O[C@@H](c2ccccc2)[C@@H](c2ccccc2)N2[C@@H](c3ccc(O)cc3)[C@]3(C(=O)Nc4ccc(C#CC5(O)CCCCCC5)cc43)[C@@H](C(=O)N3CCCCCCC3)[C@H]12', 'z-score', 1.17),
  ('CC(=O)Nc1cc(Br)ccc1C(=O)O', 'z-score', -0.904),
  ('C=C(COC)/C(=C/C[C@H](OC(=O)c1ccncc1)c1cccc(OCCO)c1)c1cc(C(=O)OC)ccc1OC', 'z-score', 2.48),
  ('CCCCC=C[C@@H](NC(=O)c1cccs1)c1ccccc1', 'z-score', 0.66),
  ('NCCCCCCNC(=O)[C@H]1C[C@H]2C(=O)NCC(=O)N2[C@H]1c1cccc(OCCO)c1', 'z-score', -1.63),
  ('COCCOC(=O)N1C(=O)[C@@]2(c3cc(C#CCNC(N)=O)ccc31)[C@H](c1ccc(OCCO)cc1)N1[C@H](c3ccccc3)[C@H](c3ccccc3)OC(=O)[C@H]1[C@@H]2C(=O)N1CCc2cc(OC)c(OC)cc2C1', 'z-score', 0.523),
  ('CC(=O)NCCCC[C@@H]1NC(=O)[C@@H]2C[C@H](C(=O)NCCCCN(C)C)[C@H](c3ccc(O)cc3)N2C1=O', 'z-score', 1.13),
  ('COC(=O)C(CC#Cc1ccc2c(c1)[C@]1(C(=O)N2)[C@H](c2ccc(OCCO)cc2)N2[C@H](c3ccccc3)[C@H](c3ccccc3)OC(=O)[C@H]2[C@@H]1C(=O)NC[C@H](O)c1ccccc1)C(=O)OC', 'z-score', 0.829),
  ('NC(=O)NCC#Cc1ccc2c(c1)[C@]1(C(=O)N2)[C@H](C(=O)N2CCCCCCC2)[C@H]2C(=O)O[C@H](c3ccccc3)[C@H](c3ccccc3)N2[C@@H]1c1ccc(OCCO)cc1', 'z-score', 0.391),
  ('NC(=O)NCC#Cc1ccc2c(c1)[C@]1(C(=O)N2)[C@H](C(=O)NC[C@H](O)c2ccccc2)[C@H]2C(=O)O[C@H](c3ccccc3)[C@H](c3ccccc3)N2[C@@H]1c1ccc(O)cc1', 'z-score', 2.63),
  ('CN(C)CCCNC(=O)[C@@]1(Cc2ccccc2I)c2ccccc2C(=O)N(Cc2ccccc2C(F)(F)F)[C@H]1c1ccc(CO)cc1', 'z-score', -0.231),
  ('CCCNC(=O)[C@@]1(c2ccc([N+](=O)[O-])cc2)CC(=O)N(CC23CC4CC(CC(C4)C2)C3)[C@@H]1c1ccc(CO)cc1', 'z-score', 2.2),
  ('COc1ccc(C(=O)Nc2cccc(CN3C(=O)[C@]4(O[C@H](CC(=O)N5CCC[C@H]5CO)[C@@H]([Si](C)(C)c5ccc(OC)cc5)[C@@H]4C)c4ccccc43)c2)cc1', 'z-score', -0.546),
  ('CC(=O)NCCCC[C@@H]1NC(=O)[C@H]2C[C@@H](C(=O)NCCCCCC[N+](C)(C)C)[C@@H](c3cccc(OCCO)c3)N2C1=O', 'z-score', 0.657);

---

experiment: P. aeruginosa biofilm formation inhibitors, primary screen, PAO1 strain, BacTiter-Glo luminescence, LB-PBS (AID 1144); settings: 12 h, higher = more signal
Use -0.8 as the dividing line for z-score, with the line itself on the MET side and lower values as NOT MET.

INSERT INTO results (molecule, discrete_label) VALUES
  ('O=C1O[C@@H](c2ccccc2)[C@@H](c2ccccc2)N2[C@@H](c3ccc(O)cc3)[C@]3(C(=O)Nc4ccc(C#CC5(O)CCCCCC5)cc43)[C@@H](C(=O)N3CCCCCCC3)[C@H]12', 'NOT MET'),
  ('O=C/C=C/c1ccc2c(c1)OCO2', 'NOT MET'),
  ('O=C1C[C@]2(c3ccc([N+](=O)[O-])cc3)C(=O)N(CC(F)(F)F)c3cc(CO)ccc3[C@H]2N1CC12CC3CC(CC(C3)C1)C2', 'NOT MET'),
  ('CCOC(=O)C[C@H]1[C@H](OC(=O)c2ccc(C(=O)c3ccccc3)cc2)[C@@H](NC(=O)C2CCCCC2)c2cc(OCCCO)ccc2N1C(=O)c1ccccc1', 'MET'),
  ('C=CCC(OC(C)=O)[C@@H]1[C@@H](N(Cc2ccc(-c3ccccc3)cc2)C(=O)Cc2ccc(F)cc2)c2cc(OCCCO)ccc2N1C(=O)c1ccc2ccccc2n1 (stereo partly specified)', 'MET');

---

molecular target: Torsin-1A (Homo sapiens); experiment: torsin A binders from cell lysate, primary screen, small-molecule microarray, wild-type, 635/667 nm (AID 1149); details: COS7 hTOR1A-WT lysate, 635 nm fluorescence, higher = more signal
Use 0.08 as the dividing line for composite z-score, with the line itself on the Condition met side and lower values as Condition not met.

INSERT INTO results (compound, discrete_label) VALUES
  ('COCCOC(=O)N1C(=O)[C@@]2(c3cc(C#CCNC(N)=O)ccc31)[C@H](c1ccccc1OCCO)N1[C@H](c3ccccc3)[C@H](c3ccccc3)OC(=O)[C@H]1[C@@H]2C(N)=O', 'Condition met'),
  ('O=C1C2C=CC(C(O)c3ccc(-c4ccccc4)s3)N(n3cnnc3)C2C(=O)N1Cc1ccccc1 (stereo unspecified)', 'Condition not met'),
  ('CC(C)c1ccc(NN2C(C(O)c3cccc(O)c3)C=CC3C(=O)N(c4ccccc4)C(=O)C32)cc1 (stereo unspecified)', 'Condition met'),
  ('COCCCNC(=O)[C@@]1(c2ccc([N+](=O)[O-])cc2)CC(=O)N(CC23CC4CC(CC(C4)C2)C3)[C@@H]1c1ccc(CO)cc1', 'Condition met'),
  ('CCOC(=O)C1=C[C@@H](C(C)C)N(S(=O)(=O)c2ccc(C)cc2)[C@H]1c1ccc(C(C)C)cc1', 'Condition met'),
  ('COC(=O)C[C@@H]1C[C@H](C)[C@]2(O1)C(=O)N(Cc1ccccc1)c1ccc(NC(C)=O)cc12', 'Condition not met'),
  ('COCCOC(=O)N1C(=O)[C@@]2(c3cc(C#CCCO)ccc31)[C@H](C(=O)NC[C@H](O)c1ccccc1)[C@H]1C(=O)O[C@H](c3ccccc3)[C@H](c3ccccc3)N1[C@@H]2c1ccc(O)cc1', 'Condition met'),
  ('N#Cc1ccc(NN2C(C(O)c3cccs3)C=CC3C(=O)N(c4ccccc4)C(=O)C32)cc1 (stereo unspecified)', 'Condition met'),
  ('CC(C)C(O)C1C=CC2C(=O)N(c3ccccc3)C(=O)C2N1Nc1ccc(C#N)cc1 (stereo unspecified)', 'Condition not met'),
  ('COCCOC(=O)N1C(=O)[C@@]2(c3cc(C#CCNC(N)=O)ccc31)[C@H](C(=O)N1CCN(c3ncccn3)CC1)[C@H]1C(=O)O[C@H](c3ccccc3)[C@H](c3ccccc3)N1[C@@H]2c1ccccc1OCCO', 'Condition met'),
  ('C=CC(COC(C)=O)NS(=O)(=O)c1ccc(Br)cc1 (stereo unspecified)', 'Condition met'),
  ('CC1=C2[C@@H](CCc3ccccc3)OB(O)C[C@@H]2n2c(=O)n(-c3ccccc3)c(=O)n2C1', 'Condition not met'),
  ('C=CCOC(=O)[C@H]1[C@@H]2C(=O)O[C@@H](c3ccccc3)[C@@H](c3ccccc3)N2[C@@H](c2ccc(OCCOC(=O)[C@@H]3C[C@@H]4C(=O)N5CCC[C@H]5C(=O)N4[C@@H]3c3ccc(O)cc3)cc2)[C@]12C(=O)Nc1ccccc12', 'Condition met'),
  ('COCCOC(=O)N1C(=O)[C@@]2(c3cc(C#CCCO)ccc31)[C@H](c1ccccc1OCCO)N1[C@H](c3ccccc3)[C@H](c3ccccc3)OC(=O)[C@H]1[C@@H]2C(=O)N1CCN(c2ncccn2)CC1', 'Condition not met'),
  ('C=CC(=C)C1=CCO[C@@H]1[C@H]1CCCN1S(=O)(=O)c1ccccc1[N+](=O)[O-]', 'Condition met'),
  ('COc1c(C)cc(-c2cc3c(c(-c4ccc(Oc5ccccc5)cc4)n2)[Si](C(C)C)(C(C)C)OC3)cc1C', 'Condition not met');
